- experimental-details: in vivo
- measurement-conditions: rat, po, 5 mg/kg
- Description: AUC (0 to t) in rat at 5 mg/kg, po
measured-quantity: AUC(0-t) (ng·h/mL)
Answer format: numeric, ng·h/mL implied, no suffix.

Return the recorded AUC(0-t) value; entry: Cc1nnc2c(NCCCCNC(=O)OC(C)(C)C)nc3ccccc3n12
574

====

- experimental-details: in vivo
- measurement-conditions: rat, po, 5 mg/kg
- Description: Tmax in rat at 5 mg/kg, po
measured-quantity: Tmax (min)
Respond numerically; units are min and should not be typed.

Supply recorded Tmax for Cc1nnc2c(NCCCCNC(=O)OC(C)(C)C)nc3ccccc3n12 here.
40

====

- experimental-details: in vivo
- measurement-conditions: rat, po, 5 mg/kg
- Description: Cmax in rat at 5 mg/kg, po
measured-quantity: Cmax
# output: numeric value plus its unit

Return reported Cmax. Input compound: Cc1nnc2c(NCCCCNC(=O)OC(C)(C)C)nc3ccccc3n12
180 ng/mL

====

- experimental-details: in vivo
- measurement-conditions: rat, po, 5 mg/kg
- Description: AUC (0 to infinity) in rat at 5 mg/kg, po
measured-quantity: AUC(0-inf) (ng·h/mL)
Respond numerically; units are ng·h/mL and should not be typed.

Please indicate AUC(0-inf) recorded for Cc1nnc2c(NCCCCNC(=O)OC(C)(C)C)nc3ccccc3n12
851

====

- Tested on: Ty-82
- experimental-details: Cytotoxicity against human Ty-82 cells assessed as growth inhibition incubated for 72 hrs by WST-1 assay
- measurement-conditions: TY82, 72 h
measured-quantity: log10 of GI50 (log10 of the value in µM)
The base-10 logarithm of GI50, taken with GI50 in µM, is what appears here.

Known log10 of GI50 results, listed for orientation:
> print(dat)
                                   compound  data.value
1  Cc1nnc2c(NCCCCNC(=O)c3ccccc3Cl)nc3ccccc3n12        0.98
2  Cc1nnc2c(NCCCCNC(=O)c3ccccc3)nc3ccccc3n12       -0.02
3  Cc1nnc2c(NCCCCNC(=O)OC(C)(C)C)nc3ccccc3n12        0.00
4  Cc1nnc2c(NCCCCNC(=O)OC(C)(C)C)nc3cc(C(=O)O)ccc3n12       -0.19

For the next question, use this compound.
In one line, give reported log10 of GI50 of the entry Cc1sc2c(c1C)C(c1ccc(Cl)cc1)=N[C@@H](CC(=O)Nc1ccc(O)cc1)c1nnc(C)n1-2 [BIRABRESIB] .
-1.17

====

molecules and their reported pKd
- measured-target: Bromodomain-containing protein 4 (Homo sapiens)
- experimental-details: Binding affinity to human BRD4 BD1 expressed in Escherichia coli BL21 (DE3) assessed as dissociation constant by bromodomain analysis
Scale explanation: pKd corresponds to minus log10 of a concentration expressed in moles per litre.

Solved entries (count: 3):
> print(dat)
                            compound.smiles  data.value
1  Cc1nnc2c(NCCCCNC(=O)OC(C)(C)C)nc3cc(C(=O)O)ccc3n12        7.44
2  Cc1nnc2c(NCCCCNC(=O)c3ccccc3Cl)nc3ccccc3n12        7.49
3  Cc1nnc2c(NCCCCNC(=O)OC(C)(C)C)nc3ccccc3n12        7.40

Give measured pKd for Cc1nnc2c(NCCCCNC(=O)c3ccccc3)nc3ccccc3n12 (Bromodomain-containing protein 4 (Homo sapiens)).
7.54

====

- experimental-details: Half life in rat at 5 mg/kg, po
- measurement-conditions: in vivo
measured-quantity: half-life (h)
Value expressed in h; do not type the unit.

Check the records and state half-life for Cc1nnc2c(NCCCCNC(=O)OC(C)(C)C)nc3ccccc3n12
3.52

====

Each entry below carries its reported GI50.
- Test system: MV4-11
- experimental-details: Cytotoxicity against human MV4-11 cells assessed as growth inhibition incubated for 72 hrs by WST-1 assay
- measurement-conditions: MV4-11, 72 h
Dear colleague, please return just the value in nM, with no unit written.

Answered examples (2):
> print(dat)
                            compound.smiles  data.value
1  Cc1nnc2c(NCCCCNC(=O)OC(C)(C)C)nc3ccccc3n12         980
2  Cc1sc2c(c1C)C(c1ccc(Cl)cc1)=N[C@@H](CC(=O)Nc1ccc(O)cc1)c1nnc(C)n1-2          30

# context switch: different molecule, same GI50
Identify GI50 associated with the molecule Cc1nnc2c(NCCCCNC(=O)c3ccccc3)nc3ccccc3n12
790

====

Measured Kd accompanies every entry in the list below.
- measured-target: Bromodomain-containing protein 4 (Homo sapiens, UniProt O60885)
- experimental-details: Binding affinity to human BRD4 BD2 expressed in Escherichia coli BL21 (DE3) assessed as dissociation constant by bromodomain analysis
State the answer as a number, implicitly in nM.

// worked examples, Kd included
> print(dat)
                            compound.smiles  data.value
1  Cc1nnc2c(NCCCCNC(=O)OC(C)(C)C)nc3cc(C(=O)O)ccc3n12         220
2  Cc1nnc2c(NCCCCNC(=O)c3ccccc3Cl)nc3ccccc3n12         110
3  Cc1nnc2c(NCCCCNC(=O)OC(C)(C)C)nc3ccccc3n12         190

Return value of Kd for input Cc1nnc2c(NCCCCNC(=O)c3ccccc3)nc3ccccc3n12 , no commentary.
180

====

- measured-target: Bromodomain-containing protein 4 (Homo sapiens, UniProt O60885)
- experimental-details: Binding affinity to human BRD4 BD1 expressed in Escherichia coli BL21 (DE3) assessed as dissociation constant by ITC analysis
measured-quantity: Kd (nM)
Answer format: numeric, nM implied, no suffix.

Return the recorded Kd value; entry: COc1ccc2c(c1)nc(NCCCCNC(=O)CC(C)C)c1nnc(C)n12
6.7
